Answer each item with its documented pIC50.
Biological target: CBFβ binding to the RUNX1 Runt domain (Homo sapiens (Human), UniProt Q13951)
Sequence (Q13951 1-141): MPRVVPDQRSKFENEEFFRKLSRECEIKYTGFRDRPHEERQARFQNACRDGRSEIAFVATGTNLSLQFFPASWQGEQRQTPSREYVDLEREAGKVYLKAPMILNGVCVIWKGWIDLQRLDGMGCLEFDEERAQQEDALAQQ
Answers are plain numbers, as −log10 of the molar value.

These solved cases illustrate the format of a correct answer.
COc1cnc(-c2nc3cc(OC(F)(F)F)ccc3[nH]2)c(OC)c1 yielded pIC50 of 5.77

COc1ccc2[nH]c(-c3ccccn3)nc2c1 yielded pIC50 of 4.47

COc1cc(OCCN2CCOCC2)cnc1-c1nc2cc(OC(F)(F)F)ccc2[nH]1 yielded pIC50 of 5.53

FC(F)(F)Oc1ccc2[nH]c(-c3ccc(OCCN4CCOCC4)cn3)nc2c1 yielded pIC50 of 5.05

FC(F)(F)Oc1ccc2[nH]c(-c3ccccn3)nc2c1 yielded pIC50 of 5.50

Next molecule, please.
COc1cccnc1-c1nc2cc(OC(F)(F)F)ccc2[nH]1 yielded pIC50 of 5.58

* * *

Molecular target: CBFβ binding to the RUNX1 Runt domain (Homo sapiens (Human))
Test: FRET assay, inhibition of CBFβ binding to the RUNX1 Runt domain
Conditions: relative to Al-4-57 or parent compounds
measured-parameter: activity in FRET assay (structure-activity relationship, in words)

COc1ccc2[nH]c(-c3cccc(OC)n3)nc2c1 yielded activity in FRET assay (structure-activity relationship, in words) of inactive

FC(F)(F)c1ccc2[nH]c(-c3ccccn3)nc2c1 yielded activity in FRET assay (structure-activity relationship, in words) of loss of activity

COc1ccc2[nH]c(-c3cccc(C)n3)nc2c1 yielded activity in FRET assay (structure-activity relationship, in words) of inactive

Cc1ccc2[nH]c(-c3ccccn3)nc2c1 yielded activity in FRET assay (structure-activity relationship, in words) of loss of activity

* * *

CBFβ binding to the RUNX1 Runt domain (Homo sapiens (Human), UniProt Q13951) data, read-out IC50

CCOc1ccc2[nH]c(-c3ccccn3)nc2c1 yielded IC50 of ≥ 34.3 µM

Fc1ccc2[nH]c(-c3ccccn3)nc2c1 yielded IC50 of ≥ 34.3 µM

Next compound, please.
COc1cccc2[nH]c(-c3ccccn3)nc12 yielded IC50 of ≥ 34.3 µM

Data origin: patent US10562890B2
